target_system: T1, human TIGIT expressed on CHO-S cells (CHO-hTIGIT) (human, UniProt Q495A1 22-244)
T1 construct: also called CHO-TIGIT cell line; TIGIT on the cell surface
T1 sequence: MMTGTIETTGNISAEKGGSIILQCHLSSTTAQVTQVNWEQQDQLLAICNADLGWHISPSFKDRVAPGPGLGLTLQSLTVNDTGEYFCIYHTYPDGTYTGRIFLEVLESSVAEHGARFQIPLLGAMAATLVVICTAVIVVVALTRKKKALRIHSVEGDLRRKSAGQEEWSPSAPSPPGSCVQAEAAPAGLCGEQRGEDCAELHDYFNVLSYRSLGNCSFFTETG
protocol_text: flow cytometry on CHO-TIGIT cells
Reported values of EC50 for individual entries
Number in µg/mL, nothing else.

Please review the entries below; each comes with its answer.
S64-39-IgG4 (antibody, V domains shown, also called 564-39-IgG4 [sic]) VH: EVQLLESGGGLVQPGGSLRLSCAASGFTFSNYAMSWVRQAPGKGLEWVSGISPSGSSIYYADSVQGRFTISRDNSKNTLYLQMNSLRAEDTAVYYCAKAIRTCSLSHCYYYYGMDVWGQGTLVTVSS VL: QSVLTQPPSASGTPGQRVTISCSSSSSNIGSNAVNWYQQLPGTAPKLLIYYDNQRPSGVPDRFSGSKSGTSASLAISGLRSEDEADYYCATWDYSLSGYVFGGGTKLTVL = 0.0808
F04-10-IgG1 (antibody, V domains shown, also called antibody based on the F04-10 clones) VH: EVQLLESGGGLVQPGGSLRLSCAASGFTFSSYYMSWVRQAPGKGLEWVSSIGSGSPSSTYYADSVKGRFTISRDNSKNTLYLQMNSLRAEDTAVYYCARSSYSGGNGYYYYAYAFDYWGQGTLVTVSS VL: EIVLTQSPGTLSLSPGERATLSCRASQSVSSSYLAWYQQKPGQAPRLLIYGASSRATGIPDRFSGSGSGTDFTLTISRLEPEDFAVYYCQQGYHRYATFGQGTKVEIK = 0.0164
10A7 antibody (antibody, V domains shown) VH: EVQLVESGGGLTQPGKSLKLSCEASGFTFSSFTMHWVRQSPGKGLEWVAFIRSGSGIVFYADAVRGRFTISRDNAKNLLFLQMNDLKSEDTAMYYCARRPLGHNTFDSWGQGTLVTVSS VL: DIVMTQSPSSLAVSPGEKVTMTCKSSQSLYYSGVKENLLAWYQQKPGQSPKLLIYYASIRFTGVPDRFTGSGSGTDYTLTITSVQAEDMGQYFCQQGINNPLTFGDGTKLEIKR = 0.0165

Need EC50 of S64-39-IgG1 (antibody, V domains shown, also called 564-39-IgG1 [sic]; antibody based on the S64-39 clones) VH: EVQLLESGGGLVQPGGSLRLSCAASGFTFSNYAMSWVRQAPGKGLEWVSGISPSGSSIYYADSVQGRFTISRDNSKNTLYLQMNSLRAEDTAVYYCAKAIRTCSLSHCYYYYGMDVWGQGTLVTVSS VL: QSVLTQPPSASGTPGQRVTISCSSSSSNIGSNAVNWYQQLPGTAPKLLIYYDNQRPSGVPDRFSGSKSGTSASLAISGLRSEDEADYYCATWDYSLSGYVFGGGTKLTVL , thanks. 0.069
